Recorded t½ for the following binders
Molecular target: T1, monkey NPR1 extracellular domain expressed with a C-terminal myc-myc-hexahistidine (mfNPR1-MMH) (monkey, UniProt P16066 33-473 (human entry))
T1 construct: also called monomeric monkey NPR1
T1 chain: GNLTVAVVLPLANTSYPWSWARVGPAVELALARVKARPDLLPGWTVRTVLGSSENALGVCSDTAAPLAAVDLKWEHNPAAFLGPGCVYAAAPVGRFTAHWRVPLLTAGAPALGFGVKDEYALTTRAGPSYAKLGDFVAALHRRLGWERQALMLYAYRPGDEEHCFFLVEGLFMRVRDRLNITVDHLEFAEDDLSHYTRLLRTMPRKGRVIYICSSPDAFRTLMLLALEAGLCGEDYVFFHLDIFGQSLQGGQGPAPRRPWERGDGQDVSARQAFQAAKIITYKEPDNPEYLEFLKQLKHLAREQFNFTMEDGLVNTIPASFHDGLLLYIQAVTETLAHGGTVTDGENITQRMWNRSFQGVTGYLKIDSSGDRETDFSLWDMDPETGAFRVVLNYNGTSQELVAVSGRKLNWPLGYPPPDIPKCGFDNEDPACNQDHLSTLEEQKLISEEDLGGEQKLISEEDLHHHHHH
Experiment: SPR, mAb captured, 25 C
Express your answer in min, writing the number without its unit.

binder	measured.property	test.result
mAb25491 (antibody, V domains shown) VH: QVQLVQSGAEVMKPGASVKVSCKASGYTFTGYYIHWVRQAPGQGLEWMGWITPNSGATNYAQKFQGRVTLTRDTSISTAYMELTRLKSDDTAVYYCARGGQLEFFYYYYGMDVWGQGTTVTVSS VL: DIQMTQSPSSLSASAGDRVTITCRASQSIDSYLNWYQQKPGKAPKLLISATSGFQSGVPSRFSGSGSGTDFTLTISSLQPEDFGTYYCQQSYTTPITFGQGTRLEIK	t½	9
mAb25497 (antibody, V domains shown) VH: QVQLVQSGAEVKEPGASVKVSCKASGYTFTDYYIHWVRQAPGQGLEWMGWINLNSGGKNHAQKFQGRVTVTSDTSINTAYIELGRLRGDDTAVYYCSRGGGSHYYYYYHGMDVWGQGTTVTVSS VL: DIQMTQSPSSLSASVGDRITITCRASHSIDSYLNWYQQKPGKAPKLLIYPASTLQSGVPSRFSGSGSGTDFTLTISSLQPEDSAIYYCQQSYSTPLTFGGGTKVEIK	t½	5.1

Proceed to the following item.
Lookup result for mAb25508 (antibody, V domains shown) VH: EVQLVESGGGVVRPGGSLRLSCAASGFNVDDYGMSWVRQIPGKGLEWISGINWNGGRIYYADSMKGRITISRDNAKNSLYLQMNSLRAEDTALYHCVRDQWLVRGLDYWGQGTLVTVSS VL: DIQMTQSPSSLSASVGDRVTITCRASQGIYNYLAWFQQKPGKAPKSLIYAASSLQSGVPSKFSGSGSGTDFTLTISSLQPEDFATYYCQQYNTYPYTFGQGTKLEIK ; measured t½: 87.5
